These entries and their values trace back to BindingDB's records for doi:10.1016/j.ab.2009.08.013.

Target: Genome polyprotein [1424-1463]/[1502-1685] (West Nile virus)
Construct: 1424-1463; 1502-1685
Sequence (P06935 whole entry) 1: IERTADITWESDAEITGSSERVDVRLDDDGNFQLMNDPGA
Sequence (P06935 whole entry) 2: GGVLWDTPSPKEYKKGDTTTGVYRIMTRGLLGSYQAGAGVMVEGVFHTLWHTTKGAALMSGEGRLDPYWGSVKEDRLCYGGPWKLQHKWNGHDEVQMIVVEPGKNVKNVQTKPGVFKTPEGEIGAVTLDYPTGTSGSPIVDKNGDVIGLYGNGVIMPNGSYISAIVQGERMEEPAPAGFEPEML
Assay: Enzyme Inhibition Assay
Conditions: pH 7.5; 37 °C
READOUT NAME: IC50 (µM)
Field format: number, assumed µM, no unit text.

Inquiry: Which measured IC50 value corresponds to c1ccc2c(Nc3ccc(C4=NCCN4)cc3)nnc(Nc3ccc(C4=NCCN4)cc3)c2c1 [phthalazine-based compound, 8] ?
Reply text: 16

###

// Genome polyprotein [1394-1440]/[1476-1660] (dengue virus type 4) IC50 records
Give the value in µM but do not write µM after it.

Inquiry: Name the reported IC50 value associated with the compound c1ccc(-c2ccc(Nc3nnc(Nc4ccc(C5=NCCN5)cc4)c4ccccc34)cc2)cc1
Reply text: 2

Inquiry: For the compound c1ccc2c(Nc3ccc4c(c3)CCNC4)nnc(Nc3ccc(C4=NCCN4)cc3)c2c1 , what IC50 is on record?
Reply text: 43

Inquiry: Given the entry c1ccc2c(Nc3ccc4c(c3)CNCC4)nnc(Nc3ccc(C4=NCCN4)cc3)c2c1 , report its measured IC50.
Reply text: 64.8

Inquiry: Which IC50 value is on record for NCc1ccc(Nc2nnc(Nc3ccc(C4=NCCN4)cc3)c3ccccc23)cc1 ?
Reply text: 8.2

###

Target: Genome polyprotein [1066-1250,R1182K]/[1394-1440,K1405R,D1408E] (dengue virus type 2, UniProt P14340+P27914, D1408E/K1405R/R1182K)
Construct: 1066-1250; 1394-1440
Sequence (P14340 1394-1440, looked up, stated change not applied): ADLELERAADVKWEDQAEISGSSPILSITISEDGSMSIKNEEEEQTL
Sequence (P27914 1066-1250, looked up, stated change not applied): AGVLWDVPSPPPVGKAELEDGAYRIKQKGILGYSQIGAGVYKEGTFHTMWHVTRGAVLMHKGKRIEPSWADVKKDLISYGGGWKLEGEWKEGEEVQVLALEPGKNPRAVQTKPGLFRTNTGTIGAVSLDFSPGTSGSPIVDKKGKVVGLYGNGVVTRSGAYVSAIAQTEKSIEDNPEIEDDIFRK
Test: Enzyme Inhibition Assay (IC50) and Fluorescence Quench Assay (KD)
Settings: pH 7.5; 37 °C
// returns False unless Kd is strictly below 20 µM, in which case True

Inquiry: For this compound, is Kd lower than 20 µM? Nc1ccc2c(Nc3ccc(C4=NCCN4)cc3)nnc(Nc3ccc(C4=NCCN4)cc3)c2c1
Reply text: False

Inquiry: Please state whether Kd is below 20 µM for c1ccc2c(Nc3ccc4c(c3)CCNC4)nnc(Nc3ccc(C4=NCCN4)cc3)c2c1
Reply text: False

Inquiry: Hello, I'm reviewing records and need to know if Kd of NCc1ccc(Nc2nnc(Nc3ccc(C4=NCCN4)cc3)c3ccccc23)cc1 is below 20 µM. Could you check?
Reply text: True

Inquiry: Decide: Kd of CC1CNC(c2ccc(Nc3nnc(Nc4ccc(C5=NC(C)CN5)cc4)c4ccccc34)cc2)=N1 (configuration not stated) strictly below 20 µM?
Reply text: True

Inquiry: Determine if c1ccc2c(Nc3ccc(C4=NCCN4)cc3)nnc(Nc3ccc(C4=NCCN4)cc3)c2c1 shows Kd strictly lower than 20 µM.
Reply text: True

Inquiry: Hi there! Is Kd for c1ccc2c(Nc3ccc(C4=NC5CCCCC5N4)cc3)nnc(Nc3ccc(C4=NC5CCCCC5N4)cc3)c2c1 (configuration not stated) below 20 µM, do you know?
Reply text: True

Inquiry: Check if Kd falls below 20 µM for c1ccc2c(Nc3ccc4c(c3)CNCC4)nnc(Nc3ccc(C4=NCCN4)cc3)c2c1 .
Reply text: False
